System: Saccharomyces cerevisiae;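 also: PSI is a weighted mean of sequencing reads over stability bins, variants kept only with over 10 reads, mCherry proximal and sfGFP distal, peptide attached via GGGS linker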
Protocol notes: protein stability index of tFT-peptide fusion (C-terminal peptide) (PSI (0-1 scale)); higher = more stable (slower turnover)
Measurement conditions: genetic background: wild type; temperature: 30 C
Readout: protein stability index
Number, no unit, nothing else.

[[record]]
sequence_text = "FCPSLFLNPHSC"
recorded_number = 0.674

[[record]]
sequence_text = "WAVGLNPSGLGT"
recorded_number = 0.651


Kindly note the recorded protein stability index for RGGGLGGLRSRA , which is 0.823

Entry PPPPPPLPLLSI — recorded protein stability index = 0.668

Noted for RLRCRYLSSTYY : its protein stability index reads 0.712

Lookup result for GELVVRVGEWGC ; measured protein stability index: 0.705

Recorded protein stability index (sequence THPFLRTHPPVE ): 0.714

Given item RQKEVSISYCWI , the value recorded as its protein stability index is 0.646

PAAPLPPTPPPP yielded protein stability index of 0.708

sequence GGVGGGAAEGAV , protein stability index observed: 0.758

Notebook: ALGGKDQSRSSS , protein stability index read as 0.699
